assay: Clearance of 99m-Tc-IMP-192 in BALB/c mice; format: in vivo; settings: BALB/c, mouse; Liver, 4 h
Where a SMILES comes first, the peptide text is derived from it. Side-chain parts run from the residue outwards. The star is where a group is joined. DTPA = O=C(O)CN(CCN(CC(=O)O)CC(=O)O)CCN(CC(=O)O)CC(=O)*; X1 = NC(=S)NN=CC(=O)*

{"COMPOUND": "CC(=O)N[C@@H](CCCCNC(=O)CN(CCN(CCN(CC(=O)O)CC(=O)O)CC(=O)O)CC(=O)O)C(=O)N[C@@H](Cc1ccc(O)cc1)C(=O)N[C@@H](CCCCNC(=O)CN(CCN(CCN(CC(=O)O)CC(=O)O)CC(=O)O)CC(=O)O)C(=O)N[C@@H](CCCCNC(=O)[C@H](CS)NC(=O)C=NNC(N)=S)C(N)=O [IMP 192] (Ac-K(DTPA)YK(DTPA)K([Cys-X1])-NH2)", "UNIT_DESCRIPTOR": "%ID/g", "tissue uptake at 4 h": 0.09}

* * *

Assay: Comparison of ^177Lu-IMP-241 and ^111In-IMP-241 pretargeting using hMN-14 × m679 F(ab′)2 bsMAb (24 h bsMAb clearance)
Assay type: in vivo, nude mice
Details: female, NCr nude, mouse, tumor, iv, total radioactivity, Tumor, 24 hour after peptide; read-out: Percent Injected Dose Per Gram
Experimental: Female NCr nude mice Charles River Laboratories, Inc., Fredrick Md. or Taconic, Germantown, N.Y.) approximately 6 weeks of age were implanted subcutaneously with 0.2 ml of this suspension. […] Tissues were removed, weighed and counted by gamma scintillation using appropriate windows for each radionuclide along with standards prepared from the injected materials. […]
*1 amine or outer side, *2 acyl side, *3 side chain or, on linkers, in order; H or OH if unused. Where a SMILES comes first, the peptide text is derived from it. Side-chain parts run from the residue outwards. [ ]: non-standard residue; d: D form. The star is where a group is joined. DOTA = O=C(O)CN1CCN(CC(=O)O)CCN(CC(=O)*)CCN(CC(=O)O)CC1; NH(2-(imidazol-4-yl)ethyl) = c1ncc(CCN*)[nH]1; Suc = O=C(CCC(=O)[*:2])[*:1]

{"COMPOUND": "NC(=O)[C@H](CCCCNC(=O)CNC(=O)CCC(=O)NCCc1cnc[nH]1)NC(=O)[C@@H](Cc1ccc(O)cc1)NC(=O)[C@H](CCCCNC(=O)CNC(=O)CCC(=O)NCCc1cnc[nH]1)NC(=O)[C@H](Cc1ccccc1)NC(=O)CN1CCN(CC(=O)O)CCN(CC(=O)O)CCN(CC(=O)O)CC1 [^177Lu-IMP-241, metal not drawn] ({DOTA}-FK([Gly-Suc-NH(2-(imidazol-4-yl)ethyl)])[dY]K([Gly-Suc-NH(2-(imidazol-4-yl)ethyl)])-NH2)", "tissue uptake at 24 h [%ID/g]": 2.59}

* * *

assay: Pretargeting: 125-I-hMN-14 × 734 bsAb, 24 h later 99m-Tc-IMP-192, biodistribution; type: in vivo, Nude mice; details: female, nude (Taconic NCRNU), mouse, total radioactivity; Kidney, 1 h post peptide
Where a SMILES comes first, the peptide text is derived from it. Side-chain parts run from the residue outwards. The star is where a group is joined. DTPA = O=C(O)CN(CCN(CC(=O)O)CC(=O)O)CCN(CC(=O)O)CC(=O)*; X1 = NC(=S)NN=CC(=O)*
MEASURED_PROPERTY: tissue uptake at 1 h

{"COMPOUND": "CC(=O)N[C@@H](CCCCNC(=O)CN(CCN(CCN(CC(=O)O)CC(=O)O)CC(=O)O)CC(=O)O)C(=O)N[C@@H](Cc1ccc(O)cc1)C(=O)N[C@@H](CCCCNC(=O)CN(CCN(CCN(CC(=O)O)CC(=O)O)CC(=O)O)CC(=O)O)C(=O)N[C@@H](CCCCNC(=O)[C@H](CS)NC(=O)C=NNC(N)=S)C(N)=O [IMP 192] (Ac-K(DTPA)YK(DTPA)K([Cys-X1])-NH2)", "OBSERVED": "4.6 %ID/g"}

* * *

assay: Pretargeting: 125-I-hMN-14 × 734 bsAb, 24 h later 99m-Tc-IMP-192, biodistribution; format: in vivo, Nude mice; details: female, nude (Taconic NCRNU), mouse, total radioactivity; Kidney, 24 h post peptide
Where a SMILES comes first, the peptide text is derived from it. Side-chain parts run from the residue outwards. The star is where a group is joined. DTPA = O=C(O)CN(CCN(CC(=O)O)CC(=O)O)CCN(CC(=O)O)CC(=O)*; X1 = NC(=S)NN=CC(=O)*

{"COMPOUND": "CC(=O)N[C@@H](CCCCNC(=O)CN(CCN(CCN(CC(=O)O)CC(=O)O)CC(=O)O)CC(=O)O)C(=O)N[C@@H](Cc1ccc(O)cc1)C(=O)N[C@@H](CCCCNC(=O)CN(CCN(CCN(CC(=O)O)CC(=O)O)CC(=O)O)CC(=O)O)C(=O)N[C@@H](CCCCNC(=O)[C@H](CS)NC(=O)C=NNC(N)=S)C(N)=O [IMP 192] (Ac-K(DTPA)YK(DTPA)K([Cys-X1])-NH2)", "UNIT_DESCRIPTOR": "%ID/g", "tissue uptake at 24 h": 1.2}

* * *

experiment: Control group: clearance of 111-In-indium-IMP-156 alone; format: in vivo, nude mice; conditions: female, NCRNU nude, mouse, total radioactivity, Tumor
Where a SMILES comes first, the peptide text is derived from it. The star is where a group is joined. DTPA = O=C(O)CN(CCN(CC(=O)O)CC(=O)O)CCN(CC(=O)O)CC(=O)*

{"MOLECULE": "CC(=O)N[C@@H](Cc1ccccc1)C(=O)N[C@@H](CCCCNC(=O)CN(CCN(CCN(CC(=O)O)CC(=O)O)CC(=O)O)CC(=O)O)C(=O)N[C@@H](Cc1ccc(O)cc1)C(=O)N[C@@H](CCCCNC(=O)CN(CCN(CCN(CC(=O)O)CC(=O)O)CC(=O)O)CC(=O)O)C(N)=O [IMP 156, Ac-Phe-Lys(DTPA)-Tyr-Lys(DTPA)-NH2] (Ac-FK(DTPA)YK(DTPA)-NH2)", "tissue uptake at 3 h / %ID/g": 0.14}

* * *

assay: Pretargeting: 125-I-hMN-14 × 734 bsAb, 24 h later 99m-Tc-IMP-192, biodistribution; format: in vivo, Nude mice; conditions: female, NCRNU nude, mouse, total radioactivity; Liver, 30 min post peptide
Where a SMILES comes first, the peptide text is derived from it. Side-chain parts run from the residue outwards. The star is where a group is joined. DTPA = O=C(O)CN(CCN(CC(=O)O)CC(=O)O)CCN(CC(=O)O)CC(=O)*; X1 = NC(=S)NN=CC(=O)*

{"COMPOUND": "CC(=O)N[C@@H](CCCCNC(=O)CN(CCN(CCN(CC(=O)O)CC(=O)O)CC(=O)O)CC(=O)O)C(=O)N[C@@H](Cc1ccc(O)cc1)C(=O)N[C@@H](CCCCNC(=O)CN(CCN(CCN(CC(=O)O)CC(=O)O)CC(=O)O)CC(=O)O)C(=O)N[C@@H](CCCCNC(=O)[C@H](CS)NC(=O)C=NNC(N)=S)C(N)=O [IMP 192] (Ac-K(DTPA)YK(DTPA)K([Cys-X1])-NH2)", "tissue uptake at 0.5 h": "1.4 %ID/g"}

* * *

assay: Pretargeting: 125-I-hMN-14 × 734 bsAb, 48 h later 111-In-indium-IMP-156, biodistribution; type: in vivo, nude mice; settings: female, nude (Taconic NCRNU), mouse; Kidney, 3 h post peptide
Where a SMILES comes first, the peptide text is derived from it. The star is where a group is joined. DTPA = O=C(O)CN(CCN(CC(=O)O)CC(=O)O)CCN(CC(=O)O)CC(=O)*
MEASURED_PROPERTY: tissue uptake at 3 h

{"COMPOUND": "CC(=O)N[C@@H](Cc1ccccc1)C(=O)N[C@@H](CCCCNC(=O)CN(CCN(CCN(CC(=O)O)CC(=O)O)CC(=O)O)CC(=O)O)C(=O)N[C@@H](Cc1ccc(O)cc1)C(=O)N[C@@H](CCCCNC(=O)CN(CCN(CCN(CC(=O)O)CC(=O)O)CC(=O)O)CC(=O)O)C(N)=O [IMP 156, Ac-Phe-Lys(DTPA)-Tyr-Lys(DTPA)-NH2] (Ac-FK(DTPA)YK(DTPA)-NH2)", "OBSERVED": "1.9 %ID/g"}
